# methodNotes: chemical genetic growth profiling, strain panel (AID 1159580);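 also: tested at 20 µM; growth read once vehicle control cultures reached saturation at 30 °C; 1 = growth at the plate median or of vehicle wells; lower values mean less growth of the strain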
# condition: S. cerevisiae deletion strains, growth OD, locus YJL168C, strain set2, hits give low values
Hit rate of the full screen: of about 5,500 compounds, about 2,000 (36%) were called active. Another 18% or so got no clear call; they are omitted. This is one part of the list.
property: normalized growth
Could you respond with only the numeric value?

>  <compound>
N[C@@H](C(=O)N[C@@H]1C(=O)N2C(C(=O)O)=C(Cl)CS[C@H]12)c1ccccc1

>  <normalized growth>
1.02

$$$$
>  <compound>
Cn1c(=O)c2c(ncn2C)n(C)c1=O

>  <normalized growth>
0.997

$$$$
>  <compound>
COc1ccccc1OCC(O)COC(N)=O (stereo not given)

>  <normalized growth>
1

$$$$
>  <compound>
COc1ccc(CC(=O)c2ccc(O)cc2O)cc1

>  <normalized growth>
0.972

$$$$
>  <compound>
COc1cc(O)ccc1C(C)=O

>  <normalized growth>
1.01

$$$$
>  <compound>
COc1ccc([C@@H](C)C(=O)c2ccc(O)cc2O)cc1

>  <normalized growth>
0.97

$$$$
>  <compound>
COC(=O)CC1C(C)(C)C(=O)C2CC3(O)C4=CC(=O)OC(c5ccoc5)C4(C)CCC3C1(C)C2=O (stereo not given)

>  <normalized growth>
0.982

$$$$
>  <compound>
CC1=C(C(=O)O)N2C(=O)[C@@H](NC(=O)[C@@H](N)c3ccc(O)cc3)[C@H]2SC1

>  <normalized growth>
0.982

$$$$
>  <compound>
COC(=O)C[C@H]1C(C)(C)[C@@H](OC(C)=O)[C@@H]2CC3=C4CC(=O)O[C@@H](c5ccoc5)[C@]4(C)CCC3[C@@]1(C)C2=O (stereo not given in full)

>  <normalized growth>
0.995

$$$$

Moving on to the next compound.
Query: What measured normalized growth goes with O=C(c1ccccc1)c1ccc2n1CCC2C(=O)O (stereo not given) ?
Response: 0.979

====

# methodNotes: chemical genetic growth profiling, strain panel (AID 1159580)
# condition: S. cerevisiae deletion strains, growth OD, locus YPL240C, strain hsp82, hits give low values
Hit rate of the full screen: of about 5,500 compounds, about 2,000 (36%) were called active. About 18% were inconclusive and are not listed. The list shows a part of the results.
property: normalized growth
Could you respond with only the numeric value?

Solved entries:
>  <smilesStr>
Oc1cccc2cccnc12

>  <normalized growth>
0.112

$$$$
>  <smilesStr>
O=C1c2ccccc2C(=O)c2ccccc21

>  <normalized growth>
0.995

$$$$
>  <smilesStr>
O=C(O)c1cccnc1C(=O)O

>  <normalized growth>
0.994

$$$$
>  <smilesStr>
CC(=O)OCC1=C(C(=O)O)N2C(=O)[C@@H](NC(=O)CSc3ccncc3)[C@H]2SC1

>  <normalized growth>
1.02

$$$$
>  <smilesStr>
NNCc1ccccc1

>  <normalized growth>
1

$$$$

Query: What measured normalized growth goes with `O=c1c(O)c(-c2ccccc2)oc2cccc(O)c12` ?
Response: 0.936

Query: What measured normalized growth goes with `CNC(C)(C)Cc1ccccc1` ?
Response: 1.01

====

normalized growth by entry:
# methodNotes: chemical genetic growth profiling, strain panel (AID 1159580)
# condition: S. cerevisiae deletion strains, growth OD, locus YMR307W, strain GAS1, hits give low values
Screen size: about 5,500 compounds; about 2,000 (36%) were called active. About 18% were inconclusive and are not listed. This is one part of the list.
Could you respond with only the numeric value?

Solved entries:
>  <molecule>
O=c1c(O)c(-c2ccccc2)oc2cc(O)ccc12

>  <property>
normalized growth

>  <reportedValue>
0.328

$$$$
>  <molecule>
C[C@]12CC[C@@H](O)C[C@H]1CCc1ccccc12

>  <property>
normalized growth

>  <reportedValue>
1.07

$$$$
>  <molecule>
CC(C)[C@@H]1CC[C@@H](C)C[C@H]1OC(=O)c1ccccc1

>  <property>
normalized growth

>  <reportedValue>
0.948

$$$$

Moving on to the next molecule.
Query: What measured normalized growth goes with C[C@]12[C@H](O)CC3C(CC[C@@H]4C[C@@H](O)CC[C@]34C)[C@@]1(O)CC[C@@H]2C1=CC(=O)OC1 (stereo partly specified) ?
Response: 1.13

====

normalized growth by entry:
# methodNotes: chemical genetic growth profiling, strain panel (AID 1159580)
# condition: S. cerevisiae deletion strains, growth OD, locus YPR141C, strain kar3, hits give low values
Screen size: about 5,500 compounds; about 2,000 (36%) were called active. About 18% were inconclusive and are not listed. The list shows a part of the results.
Could you respond with only the numeric value?

Solved entries:
>  <compound>
C[C@]12[C@H](O)CC3C(CC[C@@H]4C[C@@H](O)CC[C@]34C)[C@@]1(O)CC[C@@H]2C1=CC(=O)OC1 (stereo partly specified)

>  <normalized growth>
0.983

$$$$
>  <compound>
CC[C@H]1OC(=O)[C@H](C)[C@@H](O[C@H]2C[C@@](C)(OC)[C@@H](O)[C@H](C)O2)[C@H](C)[C@@H](O[C@@H]2O[C@H](C)C[C@H](N(C)C)[C@H]2O)[C@](C)(O)C[C@@H](C)/C(=N/OCOCCOC)[C@H](C)[C@@H](O)[C@]1(C)O

>  <normalized growth>
1.01

$$$$
>  <compound>
COC(=O)C[C@H]1C(C)(C)[C@@H](OC(C)=O)[C@@H]2CC3=C4CC(=O)O[C@@H](c5ccoc5)[C@]4(C)CCC3[C@@]1(C)C2=O (stereo partly specified)

>  <normalized growth>
1

$$$$

Moving on to the next compound.
Query: What measured normalized growth goes with COP(=O)(NC(C)=O)SC (stereo unspecified) ?
Response: 0.994

====

normalized growth by entry:
# methodNotes: chemical genetic growth profiling, strain panel (AID 1159580);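 also: tested at 20 µM; growth read once vehicle control cultures reached saturation at 30 °C; 1 = growth at the plate median or of vehicle wells; lower values mean less growth of the strain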
# condition: S. cerevisiae deletion strains, growth OD, locus YLR342W, strain FKS1 (second series), hits give low values
In all, about 5,500 compounds went through this assay and about 2,000 (36%) were called active. About 18% were inconclusive and are not listed. The list shows a part of the results.
Could you respond with only the numeric value?

>  <compound>
COC(=O)CC1C(C)(C)C(=O)C2CC3(O)C4=CC(=O)OC(c5ccoc5)C4(C)CCC3C1(C)C2=O (stereo unspecified)

>  <property>
normalized growth

>  <reportedValue>
0.992

$$$$

Query: What measured normalized growth goes with `Cn1c(=O)c2c(ncn2CCO)n(C)c1=O` ?
Response: 0.981

Query: What measured normalized growth goes with NC(Cc1ccc(Cl)cc1)C(=O)O (stereo unspecified) ?
Response: 1.02

Query: What measured normalized growth goes with `O=C(O)c1cc(=O)c2ccccc2[nH]1` ?
Response: 1.01

Query: What measured normalized growth goes with CN1CCCCC1c1ccc(-c2cccnc2)nc1 (stereo unspecified) ?
Response: 1.06

Query: What measured normalized growth goes with `N[C@@H](C(=O)N[C@@H]1C(=O)N2C(C(=O)O)=C(Cl)CS[C@H]12)c1ccccc1` ?
Response: 0.986

====

# methodNotes: chemical genetic growth profiling, strain panel (AID 1159580);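 also: tested at 20 µM; growth read once vehicle control cultures reached saturation at 30 °C; 1 = growth at the plate median or of vehicle wells; lower values mean less growth of the strain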
# condition: S. cerevisiae deletion strains, growth OD, locus YML016C, strain PPZ1, hits give low values
Out of some 5,500 compounds screened, about 2,000 (36%) were called active. Another 18% or so got no clear call; they are omitted. The list shows a part of the results.
Hi! Just check whether normalized growth is below 1. Below gives 1, equal or above gives 0.

>  <smilesStr>
C/C(=C\CO)CC[C@H](C)CCC[C@H](C)CCCC(C)C

>  <assignedClass>
0

$$$$
>  <smilesStr>
O=C(/C=C/c1ccccc1)c1ccc(O[C@@H]2O[C@H](CO)[C@@H](O)[C@H](O)[C@H]2O)cc1O

>  <assignedClass>
1

$$$$

Query: API: query returns whether the compound falls strictly under 1 in normalized growth. Query: `COc1ccc(-c2c(O)c3c(OC)c4c(cc3oc2=O)OC(C)(C)C=C4)cc1`
Response: 1

====

# methodNotes: chemical genetic growth profiling, strain panel (AID 1159580);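 also: tested at 20 µM; growth read once vehicle control cultures reached saturation at 30 °C; 1 = growth at the plate median or of vehicle wells; lower values mean less growth of the strain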
# condition: S. cerevisiae deletion strains, growth OD, locus YLR342W, strain FKS1
The campaign covered roughly 5,500 compounds. About 2,000 (36%) were called active. Not shown: some 18% with an inconclusive outcome. Cut-off read from the data, not from the text of the source: active = normalized growth mostly below about 0.91 (no sharp cut-off); inconclusive = no clear call, values can overlap the other calls; inactive = mostly above about 0.92. The list shows a part of the results.
One label from this list, please: T = active, F = inactive

Answered examples (2):
>  <compound>
Oc1cc2c(cc1O)C(c1ccccc1)CNCC2 (stereo not given)

>  <assignedClass>
F

$$$$
>  <compound>
Cc1cc(O)c2c(c1)C(=O)c1cccc(O)c1C2=O

>  <assignedClass>
F

$$$$

Query: What call does the record list for O=C(O)C1=C(CSc2nnnn2CS(=O)(=O)O)CS[C@@H]2C(NC(=O)[C@H](O)c3ccccc3)C(=O)N12 (stereo not given in full) ?
Response: F

Query: What call does the record list for COC(=O)C[C@H]1C(C)(C)[C@@H](OC(C)=O)[C@@H]2CC3=C4CC(=O)O[C@@H](c5ccoc5)[C@]4(C)CCC3[C@@]1(C)C2=O (stereo not given in full) ?
Response: F

Query: What call does the record list for C=C(C)C1Cc2c(ccc3c(=O)c4c(oc23)COc2cc(OC)c(OC)cc2-4)O1 (stereo not given) ?
Response: F

Query: What call does the record list for CC1CC(OC(=O)c2ccccc2O)CC(C)(C)C1 (stereo not given) ?
Response: F

Query: What call does the record list for `O=C1C=CC(=O)c2c(O)c(Cl)c(Cl)c(O)c21` ?
Response: T

Query: What call does the record list for `O=c1c(O)c(-c2ccccc2)oc2cc(O)ccc12` ?
Response: T

Query: What call does the record list for `CCC[C@@H]1C[C@@H](C(=O)N[C@H]([C@H]2O[C@H](SC)[C@H](O)[C@@H](O)[C@H]2O)[C@H](C)O)N(C)C1` ?
Response: F

Query: What call does the record list for `O=c1c(O)c(-c2ccc(O)cc2)oc2ccccc12` ?
Response: T

Query: What call does the record list for CC(C)c1cc2c(c(O)c1O)[C@@]1(C(=O)O)CCCC(C)(C)C1CC2 (stereo not given in full) ?
Response: F

Query: What call does the record list for CC(=O)Oc1c(C)c(C)c2c(c1C)CCC(C)(CCCC(C)CCCC(C)CCCC(C)C)O2 (stereo not given) ?
Response: F

Query: What call does the record list for CCC1(C2=NCCN2)Cc2ccccc2O1 (stereo not given) ?
Response: F

Query: What call does the record list for CC(=O)NC1C(O)OC(COS(=O)(=O)O)C(OC2OC(C(=O)O)C(OC3OC(CO)C(OC4OC(C(=O)O)C(O)C(O)C4OS(=O)(=O)O)C(OS(=O)(=O)O)C3NS(=O)(=O)O)C(O)C2OS(=O)(=O)O)C1O (stereo not given) ?
Response: F

Query: What call does the record list for `COc1cc(Cc2cnc(N)nc2N)cc(OC)c1OC` ?
Response: F

These entries and their values trace back to PubChem BioAssay AID1159580.
